Ref: ChEMBL document CHEMBL3621158

# key: entry, value: inhibition in vivo at 50 mg/kg
Tested on: Mus musculus
Test: Anti-inflammatory activity in mouse model of histamine-induced paw edema assessed as inhibition of inflammation at 50 mg/kg, ip dosed 1 hr before histamine injection relative to 50 mg/kg, ip indomethacin
Assay type: functional
MEASURE: inhibition in vivo at 50 mg/kg (%)

C=C(C)[C@@H]1CC[C@]2(C(=O)O)CC[C@]3(C)[C@H](CC[C@@H]4[C@@]5(C)CC[C@](O)(c6cn(C[C@H](C)N(C(=O)[C@@H](NC(=O)OC(C)(C)C)[C@@H](C)CC)C(=O)C(C)(C)NCc7ccc(OC)cc7OC)nn6)C(C)(C)[C@@H]5CC[C@]43C)[C@@H]12 : 34.5
C=C(C)[C@@H]1CC[C@]2(C(=O)O)CC[C@]3(C)[C@H](CC[C@@H]4[C@@]5(C)CC[C@@](O)(c6cn(CCNC(=O)C(C)(C)N(Cc7ccc(OC)cc7OC)C(=O)[C@H](Cc7c[nH]cn7)NC(=O)OC(C)(C)C)nn6)C(C)(C)[C@@H]5CC[C@]43C)[C@@H]12 : 79
C=C(C)[C@@H]1CC[C@]2(C(=O)O)CC[C@]3(C)[C@H](CC[C@@H]4[C@@]5(C)CC[C@@](O)(c6cn(C[C@H](C)N(C(=O)[C@H](Cc7ccccc7)NC(=O)OC(C)(C)C)C(=O)C(C)(C)NCc7ccc(OC)cc7OC)nn6)C(C)(C)[C@@H]5CC[C@]43C)[C@@H]12 : 6
C#C[C@]1(O)CC[C@]2(C)[C@H]3CC[C@@H]4[C@H]5[C@H](C(=C)C)CC[C@]5(C(=O)O)CC[C@@]4(C)[C@]3(C)CC[C@H]2C1(C)C : 60
